Provenance of the data: ChEMBL document CHEMBL3045163

Test system: Mus musculus
Experiment: Antidepressant activity in Mus musculus (mouse) assessed as immobility time at 100 mg/kg, ip administered 60 min before test measured during last 4 min of 6 min testing period
Assay type: functional
Details: route intraperitoneal

molecule	Time, s
Fc1ccc(/C=N/NC(=S)Nc2nc3ccc(Cl)cc3s2)cc1	188
O=[N+]([O-])c1ccc(/C=N/NC(=S)Nc2nc3ccc(Cl)cc3s2)cc1	157
O=C(CN(c1ccccc1)c1ccccc1)Nc1nc2ccc(Cl)cc2s1	196
O=C(Cn1ccc2ccccc21)Nc1nc2ccc(Cl)cc2s1	152
CN(C)c1ccc(/C=N/NC(=S)Nc2nc3ccc(Cl)cc3s2)cc1	172
Oc1ccc(/C=N/NC(=S)Nc2nc3ccc(Cl)cc3s2)cc1	169
CC(C)(C)NCC(=O)Nc1nc2ccc(Cl)cc2s1	129
O=C(Cn1ccnc1)Nc1nc2ccc(Cl)cc2s1	137
S=C(N/N=C/c1ccccc1Cl)Nc1nc2ccc(Cl)cc2s1	177
O=C(CNc1ccc(F)cc1)Nc1nc2ccc(Cl)cc2s1	169
O=C(CN1CCCCC1)Nc1nc2ccc(Cl)cc2s1	145
